Give measured Corrected Mortality Rate (%) for each item. Keep answers brief.
Test system: Aphid
Assay: Killing efficacy test against agricultural pests: aphid test (leaf dip)
Assay type: in vivo, aphids
Conditions: 10 mg/L, after 72 h
Field: numeric (%). Do not append units.

**Query** # return Corrected Mortality Rate (%) for Cc1cc(C2=NO[C@@](c3cc(Cl)cc(C(F)(F)F)c3)(C(F)(F)F)C2)ccc1C(=O)NCC(=O)NC1(C(F)(F)F)CC1 [Example 008] , test system: Aphid
**Result** 100

**Query** # return Corrected Mortality Rate (%) for Cc1cc(C2=NOC(c3cc(C(F)(F)F)cc(C(F)(F)F)c3)(C(F)(F)F)C2)ccc1C(=O)NCC(=O)NC1(C(F)(F)F)CC1 (stereo not shown) [Example 030] , test system: Aphid
**Result** 86

**Query** # return Corrected Mortality Rate (%) for Cc1cc(C2=NO[C@@](c3cc(Cl)cc(Cl)c3)(C(F)(F)F)C2)ccc1C(=O)NCC(=O)NC1(C(F)(F)F)CC1 [Example 011] , test system: Aphid
**Result** 100

**Query** # return Corrected Mortality Rate (%) for Cc1cc(C2=NOC(c3cc(Cl)c(Cl)c(C(F)(F)F)c3)(C(F)(F)F)C2)ccc1C(=O)NCC(=O)NC1(C(F)(F)F)CC1 (stereo not shown) [Example 029] , test system: Aphid
**Result** 100
